Test system: mice
Experimental protocol: Amphetamine-induced hyperlocomotion (open field)
Format: in vivo
Protocol conditions: drug 1 0.03 mg/kg IP, drug 2 amphetamine SC
Protocol: Table 2, below, indicates the locomotor responses of mice treated with various combinations of alpha-2B receptor agonists and the psychostimulant amphetamine. Drug 1 was administered 30 minutes after the animal was placed in the open field. Drug 2 was administered subcutaneously (SC) at 45 minutes after the animal was placed in the open field (15 minutes after drug 1). […] Amphetamine- or cocaine-induced hyperactivity. […] Their activity levels were subsequently measured for another 1 hour post-injection. […]
Measured parameter: TOTAL ACTIVITY POST-AMPHETAMINE (AUC)
One number for each entry.

Please review the following examples before continuing.
Clc1cccc(C(c2ccccc2)c2c[nH]cn2)c1Cl (stereo not shown) [Compound C] :: 6348.0
OCCNC(=S)NCc1cccc(Cl)c1F [Compound A] :: 5524.8
Clc1cccc(CNC2=NCCN2)c1Cl [Compound F] :: 9933.0

Here is the next item to consider.
Q: Query: TOTAL ACTIVITY POST-AMPHETAMINE (AUC); subject: c1ccc2c(c1)CC[C@@H](Cc1c[nH]cn1)C2 [Compound B]
A: 3940.5

// provenance: patent US20110160265A1
